- Study System: T1, recombinant human ROR1 extracellular domain (human, UniProt Q01973 30-406)
- T1 construct: biotinylated for the filter lifts; also called huROR1-ECD; human ROR1-ECD
- T1 sequence (Q01973 30-406 limits assumed): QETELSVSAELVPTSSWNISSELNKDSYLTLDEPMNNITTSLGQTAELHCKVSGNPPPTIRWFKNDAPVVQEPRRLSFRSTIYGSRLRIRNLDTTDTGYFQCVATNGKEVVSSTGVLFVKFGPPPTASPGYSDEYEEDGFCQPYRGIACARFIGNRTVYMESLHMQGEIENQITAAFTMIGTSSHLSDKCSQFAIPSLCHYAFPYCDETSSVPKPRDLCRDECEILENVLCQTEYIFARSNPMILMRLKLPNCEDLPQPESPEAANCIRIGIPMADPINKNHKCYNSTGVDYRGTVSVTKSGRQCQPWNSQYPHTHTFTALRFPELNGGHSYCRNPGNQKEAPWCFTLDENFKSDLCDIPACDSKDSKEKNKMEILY
- Experimental Details: ELISA with prolonged wash, soluble Fab on coated huROR1-ECD
Attribute: Kd
Measured Quantity: Kd (nM)

[[record]]
binder = "Ab1 Fab variant H1 T32A + H2 G66E (Fab, V domains shown, Fab) VH: QVQLQESGPGLVKPSQTLSLTCTVSGYAFAAYNIHWVRQAPGQGLEWMGSFDPYDEGSSYNQKFKDRLTISKDTSKNQVVLTMTNMDPVDTATYYCARGWYYFDYWGHGTLVTVSS VL: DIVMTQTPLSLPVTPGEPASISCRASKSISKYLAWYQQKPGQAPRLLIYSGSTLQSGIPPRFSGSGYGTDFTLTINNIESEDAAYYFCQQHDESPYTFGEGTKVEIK"
numeric_result = 2.7

[[record]]
binder = "Ab1 Fab variant H1 T32A + H2 G66E, S69V, N71H (Fab, V domains shown, Fab) VH: QVQLQESGPGLVKPSQTLSLTCTVSGYAFAAYNIHWVRQAPGQGLEWMGSFDPYDEGSVYHQKFKDRLTISKDTSKNQVVLTMTNMDPVDTATYYCARGWYYFDYWGHGTLVTVSS VL: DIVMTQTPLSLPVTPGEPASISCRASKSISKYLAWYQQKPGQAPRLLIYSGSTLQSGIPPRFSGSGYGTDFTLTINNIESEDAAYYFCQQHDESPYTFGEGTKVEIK"
numeric_result = 3.2

